# Test system: MRC5
# Measurement Protocol: Cytotoxicity against MRC-5 cells at concentration 8 uM
# Type: functional
# Run Parameters: Homo sapiens
Recorded Endpoint: cytotoxicity at 8 µM (%)
Your answer is read as %, so omit the unit and give the number.

// below: answered compounds
>  <Compound>
CC(NC(=O)OC(C)(C)C)C(=O)N1CCN(c2ccnc3cc(Cl)ccc23)CCN(c2ccnc3cc(Cl)ccc23)CC1 (stereo not drawn)

>  <Assayed Target>
MRC5

>  <Units Label>
%

>  <cytotoxicity at 8 µM>
0

$$$$
>  <Compound>
O=C(CCCCN1CCCCC1)N1CCN(c2ccnc3cc(Cl)ccc23)CCN(c2ccnc3cc(Cl)ccc23)CC1

>  <Assayed Target>
MRC5

>  <Units Label>
%

>  <cytotoxicity at 8 µM>
92

$$$$
>  <Compound>
O=C(CCCCCCCCCCC(=O)N1CCN(c2ccnc3cc(Cl)ccc23)CCN(c2ccnc3cc(Cl)ccc23)CC1)N1CCN(c2ccnc3cc(Cl)ccc23)CCN(c2ccnc3cc(Cl)ccc23)CC1

>  <Assayed Target>
MRC5

>  <Units Label>
%

>  <cytotoxicity at 8 µM>
0

$$$$
>  <Compound>
O=C(CCCC(=O)N1CCN(c2ccnc3cc(Cl)ccc23)CCN(c2ccnc3cc(Cl)ccc23)CC1)N1CCNCCNCC1

>  <Assayed Target>
MRC5

>  <Units Label>
%

>  <cytotoxicity at 8 µM>
0

$$$$

Problem: Give me measured cytotoxicity at 8 µM, please, for this compound: CC(N)C(=O)N1CCN(c2ccnc3cc(Cl)ccc23)CCN(c2ccnc3cc(Cl)ccc23)CC1 (stereo not drawn)
Solution: 0

Hello, the source for this data is ChEMBL document CHEMBL1134480, in case you need it.
